- tgt: receptor EGFP-NK2R (UniProt P16610)
- method description: Reversion of the binding of NKA-Bo to EGFP-NK2R by fluorescence energy transfer
- Parameters: % al (max): maximum value observed for the increase in amplitude of the rapid dissociation rate; ns = n; other: 20 nM of NK; % al (at 10 μM); other: compou; fused on or other part: EGFP fused to the receptor as FRET donor
- run conditions: compound 10 μM
Would you kindly list % bond reversion (at 10 μM) for each of these compounds?
Give bare numbers, in %.

Below, 3 compounds whose answers are already recorded.
- chem smiles: "N#CCN(Cc1ccccc1)Cc1ccc(Cl)cc1"
  % bond reversion (at 10 μM), %: 17
- chem smiles: "N#CCN(Cc1ccc2ccccc2c1)Cc1ccccc1Br"
  % bond reversion (at 10 μM), %: 16
- chem smiles: "N#CCN(Cc1ccc(CCc2ccccc2)cc1)Cc1ccc2ccccc2c1"
  % bond reversion (at 10 μM), %: 6

Below: the item to evaluate.
Task item: What value of % bond reversion (at 10 μM) has been reported for the following compound? N#CCN(Cc1ccccc1)Cc1cccc(Cl)c1
Reply: 7
